Biological target: human cannabinoid receptor 1 (huCB1), full length, expressed on cells (human, UniProt P21554 1-472)
Sequence (P21554 whole entry): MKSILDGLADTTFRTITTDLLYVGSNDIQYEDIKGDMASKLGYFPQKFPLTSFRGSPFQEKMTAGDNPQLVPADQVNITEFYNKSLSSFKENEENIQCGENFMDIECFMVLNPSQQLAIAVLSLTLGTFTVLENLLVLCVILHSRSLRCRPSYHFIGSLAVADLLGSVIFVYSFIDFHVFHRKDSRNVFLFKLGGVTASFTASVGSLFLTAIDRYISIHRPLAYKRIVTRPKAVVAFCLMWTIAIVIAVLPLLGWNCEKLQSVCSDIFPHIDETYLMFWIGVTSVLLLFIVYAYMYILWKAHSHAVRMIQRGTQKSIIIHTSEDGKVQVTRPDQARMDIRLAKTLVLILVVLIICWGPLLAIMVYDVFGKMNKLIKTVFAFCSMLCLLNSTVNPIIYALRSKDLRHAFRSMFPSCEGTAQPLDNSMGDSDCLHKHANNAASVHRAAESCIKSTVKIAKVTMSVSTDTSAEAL
Experiment: cell-based or functional assay
Measure: Mean IC50, -fold vs Rimo (fold vs Rimonabant)
# output: bare number, implied unit fold vs Rimonabant

The examples below pair each entry with its known result.
Binder	Unit annotation	Test result
LIBC523969-1 (antibody, V domains shown) VH: QVQLQESGPGLVKPSQTLSLTCTVSGGSIRRGGDYWSWIRQHPGKGLEWIGHIYQTGQTKYNPNLKGRATISVNTYKNQFSLKLSSVTAADTAVYYCARDYDILTGYSYYYYGMDVWGQGTTVTVSS VL: DIVMTQSPLSLPVTPGEPASISCRSSQSLLSSTGANYLDWYLQKPGQSPQLLIYQGSNRASGVPDRFSGSGSGTDFTLKISRVEAEDVGVYYCRQAVGLPRTFGQGTKVEIKR	fold vs Rimonabant	1.29
LIBC527879-1 (antibody, V domains shown) VH: QVQLQESGPGLVKPSQTLSLTCTVSGGSIRRGGDYWGWIRQHPGKGLEWIGHIYQSGSTNYNPKLKSRATISVDTYKNQFSLKLSSVTAADTAVYYCARDYDIFTGYSYYYYGMDVWGQGTTVTVSS VL: DIQLTQSPSSLSASVGDRVTITCRASQSIISYLNWYQQKPGKAPKLLIYAASSLRSGVPSRFSGSGSGTDFTLTISSLQPEDFATYYCQQYSNYPLTFGGGTRVEIKR	fold vs Rimonabant	1.32
LIBC527984-1 (antibody, V domains shown) VH: QVQLQESGPGLVKPSQTLSLTCTVSGGSIRRGGDYWSWIRQHPGKGLEWIGHIYQTGKTNYNPNFKSRATISVNTYKNQFSLKLSSVTAADTAVYYCARDYDILTGYSYYYYGMDVWGQGTTVTVSS VL: DIQMTQSPSTLSASVGDRVTITCRASQSISNYLNWYQQKPGKAPKLLIYAASSLHSGVPSRFSGSGSGTDFTLTISSLQPEDFASYYCQQYQSYPLTFGQGTKVEIKR	fold vs Rimonabant	1.42
LIBC523813-1 (antibody, V domains shown) VH: QVQLQESGPGLVKPSQTLSLTCTVSGGSIRRGGDYWSWIRQHPGKGLEWIGHVYYTGQTAYNPKFKDRATISVKTYKNQFSLKLSSVTAADTAVYYCARDYDILTGYSYYYYGMDVWGQGTTVTVSS VL: DIVMTQSPLSLPVTPGEPASISCRSSQSLLSSSGANYVDWYLQKPGQSPQLLIYLGSNRASGVPDRFSGSGSGTDFTLKISRVEAEDVGVYYCMQARGIPRTFGQGTKVEIKR	fold vs Rimonabant	1.98

## Task Assign Mean IC50, -fold vs Rimo to the following record: LIBC523844-1 (antibody, V domains shown) VH: QVQLQESGPGLVKPSQTLSLTCTVSGGSIRRGGDYWSWIRQHPGKGLEWIGHVYYTGSTKYNPSFKDRATISVNTYKNQFSLKLSSVTAADTAVYYCARDYDILTGYSYYYYGMDVWGQGTTVTVSS VL: DIVMTQSPLSLPVTPGEPASISCRSSQSLLSSSGANYVDWYLQKPGQSPQLLIYQGSNRASGVPDRFSGSGSGTDFTLKISRVEAEDVGVYYCRQARALPRTFGQGTKVEIKR
## Result 1.28
